Origin of measurements: patent US6339082B1

Parameter: pIC50. Scope: all listed entries.
molecular target: human αvβ3 receptor (Homo sapiens, UniProt P05106+P06756); assay: Bond displacement Vitronectin/Vitronectin Receptor (αvβ3), binding competition test Vn/VR; conditions: human vitronectin coated plates, 3 hours at ambient temperature
pIC50: −log10 of the molar value.
reported.property: pIC50

molecule="COc1c(C(=O)NCC(NC(=O)OCc2ccccc2)C(=O)O)cc2c(c1OC)C1=C(CCC1)C(=NNC1=NCCN1)CC2 (racemic) [EX. 1]" reported_property=pIC50 assay_result=7.80
molecule="O=C(O)CC(NC(=O)c1ccc2c(c1)CCC(=NNC1=NCCN1)C1=C2CCC1)c1ccc2c(c1)OCO2 (stereo not shown) [EX. 4]" reported_property=pIC50 assay_result=7.21
molecule="O=C(O)CC(NC(=O)c1ccc2c(c1)CCC(=NNC1=NCCN1)C1=C2CCC1)c1cccnc1 (stereo not shown) [EX. 3]" reported_property=pIC50 assay_result=7.00
molecule="COc1c(C(=O)NCC(NC(=O)OCc2ccccc2)C(=O)O)cc2c(c1OC)C1=C(CCC1)C(=NNC1=NCCCN1)CC2 (racemic) [EX. 2]" reported_property=pIC50 assay_result=7.72
